I'd be grateful if you could share measured apparent KD of K4 kissing-loop reporter for these entries.
# Test system: K4 kissing-loop RNA reporter;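 further: bound reporter read as fluorescence of individual clusters on recovered sequencing chips by microscopy, with normalized cluster intensities fitted with a binding model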
# method.summary: apparent KD of K4 kissing-loop reporter; higher = weaker reporter binding
# stated.conditions: Eterna round: R107; input ligand: FMN 200 uM
The response must be a number in nM with no trailing unit.

Per the records, this sequence ( UCCAAUAUUUAUUGAUCCGCCUCGCAUCAACGAGGACCGGUACGGCCGCCACUCGUGCCUAGGUAGUGAUGUUACUUAGUUUACU [theeternabot_sameState_KL_Trp_A_32] ) has apparent KD of K4 kissing-loop reporter equal to 93.2

response.value for GGGCGUUACGGAGUGAUGUUCCGUAGCGAUACCAGCCAUUGCGAUGGCCCUUGGCAGCGCUAUAAGCAUAGAAUUGUAGCGCUUA [Theo A Ex t7b] (field: apparent KD of K4 kissing-loop reporter) = 109

Lab book: apparent KD of K4 kissing-loop reporter of AGUCGCAGUGAUGUUGCGAUUCCGUUGAGGGAGGAUAUUGGUAAUACAAGAAGGCCCGGCUACGGGAGAUGUUAGCAAUAGGGCC [Exclusion FMN A GF20] noted as 92

Looking up UUAGCCCUAUAGGGCAAGACCUAUACUGAUACCAGAGGGUAUACCCUCCCUUGGCAGCGGAUCGAGUGAUGUUCGUAAGGUCAUU [AK4.4 SS Theophylline A] , I see its apparent KD of K4 kissing-loop reporter listed as 741

Query UUAUUAAUAACAGAUACCAGUCCAGAAUGAAUACUAUAGUGAUGUUAUAAUAAAGGGAAGGACCCUUGGCAGCUGUAAUAUAUUU [AstrosSSTheB#1] yields apparent KD of K4 kissing-loop reporter of 431

For reference, reported apparent KD of K4 kissing-loop reporter for ACUUAUUGUGUCGAUACCAGCAGGUGACGACGCCUCAUGGCUGACGAGUGAUGUUCGACUUGCCCUUGGCAGCGACAUACGCCGG [theeternabot_sameState_KL_Theo_B_12] stands at 354

Taken from the supplement of paper PMC9170038.
